measured_on: SMYD3 (Homo sapiens (Human), UniProt Q9H7B4)
assay_protocol: SMYD3 biochemical assay (SPA, 3H-SAM methylation of MEKK2 protein substrate)
test_settings: IC50 values are an average of n = 1 to n = 50; read-out: SMYD3 Biochem IC50*
Excerpt: S-adenosylmethionine (SAM), S-adenosylhomocysteine (SAH), Tris, Tween20, dimethylsulfoxide (DMSO), bovine skin gelatin (BSG), and Tris(2-carboxyethyl)phosphine hydrochloride solution (TCEP) were purchased from Sigma-Aldrich at the highest level of purity possible. ^3H-SAM was purchase from American Radiolabeled Chemicals with a specific activity of 80 Ci/mmol. 384-well opaque white OptiPlates and SPA beads (Perkin Elmer, catalog # RPNQ0013) were purchased from PerkinElmer. […]
recorded_endpoint: IC50 (nM)
Your answer is read as nM, so omit the unit and give the number.

Solved cases below.
Entry under test: CCc1cc(C(=O)N[C@H]2C[C@H]3CC[C@@H](C2)N3S(=O)(=O)c2ccc(C(C)(C)N)cc2)no1 [compound 970] . Its IC50 was 89.3

Data point: C[C@H]1C[C@@H](NC(=O)c2cc(C3CC3)on2)CCN1S(=O)(=O)CC1CCCCN1 (stereo partly shown) [compound 989] ; IC50 = 175

Item: CCC[C@H]1C[C@@H](NC(=O)c2cc(C3CC3)on2)CCN1S(=O)(=O)CC1CCN(C)CC1 [compound 991] | IC50: 187

Reported IC50 ( CC(C)(NC1CCN(S(=O)(=O)N2[C@@H]3CC[C@H]2C[C@@H](NC(=O)c2cc(C4CC4)on2)C3)CC1)c1ccccc1 [compound 978] ) = 117

Kindly note the recorded IC50 for C[C@H]1C[C@@H](NC(=O)c2cc(C3CC3)on2)CCN1S(=O)(=O)N1CCC(NC(C)(C)c2ccccc2)CC1 [compound 972] , which is 93.3

Query C[C@H]1C[C@@H](NC(=O)c2cc(C3CC3)on2)CCN1S(=O)(=O)N1CCNC[C@@H]1c1ccccc1 [compound 984] yields IC50 of 142

According to the records, this compound CC[C@@H]1CN(S(=O)(=O)N2CC[C@H](NC(=O)c3cc(C4CC4)on3)C[C@@H]2C)CCN1 [compound 974] displays IC50 of 99

// recorded IC50 for CN1CCC[C@@H]1CS(=O)(=O)N1[C@@H]2CC[C@H]1C[C@@H](NC(=O)c1cc(C3CC3)on1)C2 [compound 969] : 88.6

Next:
// IC50 value for O=C(N[C@H]1C[C@H]2CC[C@@H](C1)N2S(=O)(=O)[C@@H]1CCCN(CCO)C1)c1cc(C2CC2)on1 [compound 981] : 127

Per the records, this compound ( O=C(N[C@H]1C[C@H]2CC[C@@H](C1)N2S(=O)(=O)N1CC2CCC(C1)N2CCN1CCOCC1)c1cc(C2CC2)on1 [compound 967] ) has IC50 equal to 87

Measured IC50 of CC(C)C1CNCCN1S(=O)(=O)N1CC[C@H](NC(=O)c2cc(C3CC3)on2)C[C@@H]1C (stereo partly shown) [compound 975] : 101

The reported value for O=C(N[C@H]1C[C@H]2CC[C@@H](C1)N2S(=O)(=O)N1CC2CCC(C1)N2CCC(F)(F)F)c1cc(C2CC2)on1 [compound 990] in terms of IC50 is 184

Given item CN1CCCC1CS(=O)(=O)N1[C@@H]2CC[C@H]1C[C@@H](NC(=O)c1cc(C3CC3)on1)C2 (stereo partly shown) [compound 982] , the value recorded as its IC50 is 134
